- STUDY SYSTEM: Nitric oxide synthase 3 (Homo sapiens, UniProt P29474)
- Sequence (P29474 whole entry): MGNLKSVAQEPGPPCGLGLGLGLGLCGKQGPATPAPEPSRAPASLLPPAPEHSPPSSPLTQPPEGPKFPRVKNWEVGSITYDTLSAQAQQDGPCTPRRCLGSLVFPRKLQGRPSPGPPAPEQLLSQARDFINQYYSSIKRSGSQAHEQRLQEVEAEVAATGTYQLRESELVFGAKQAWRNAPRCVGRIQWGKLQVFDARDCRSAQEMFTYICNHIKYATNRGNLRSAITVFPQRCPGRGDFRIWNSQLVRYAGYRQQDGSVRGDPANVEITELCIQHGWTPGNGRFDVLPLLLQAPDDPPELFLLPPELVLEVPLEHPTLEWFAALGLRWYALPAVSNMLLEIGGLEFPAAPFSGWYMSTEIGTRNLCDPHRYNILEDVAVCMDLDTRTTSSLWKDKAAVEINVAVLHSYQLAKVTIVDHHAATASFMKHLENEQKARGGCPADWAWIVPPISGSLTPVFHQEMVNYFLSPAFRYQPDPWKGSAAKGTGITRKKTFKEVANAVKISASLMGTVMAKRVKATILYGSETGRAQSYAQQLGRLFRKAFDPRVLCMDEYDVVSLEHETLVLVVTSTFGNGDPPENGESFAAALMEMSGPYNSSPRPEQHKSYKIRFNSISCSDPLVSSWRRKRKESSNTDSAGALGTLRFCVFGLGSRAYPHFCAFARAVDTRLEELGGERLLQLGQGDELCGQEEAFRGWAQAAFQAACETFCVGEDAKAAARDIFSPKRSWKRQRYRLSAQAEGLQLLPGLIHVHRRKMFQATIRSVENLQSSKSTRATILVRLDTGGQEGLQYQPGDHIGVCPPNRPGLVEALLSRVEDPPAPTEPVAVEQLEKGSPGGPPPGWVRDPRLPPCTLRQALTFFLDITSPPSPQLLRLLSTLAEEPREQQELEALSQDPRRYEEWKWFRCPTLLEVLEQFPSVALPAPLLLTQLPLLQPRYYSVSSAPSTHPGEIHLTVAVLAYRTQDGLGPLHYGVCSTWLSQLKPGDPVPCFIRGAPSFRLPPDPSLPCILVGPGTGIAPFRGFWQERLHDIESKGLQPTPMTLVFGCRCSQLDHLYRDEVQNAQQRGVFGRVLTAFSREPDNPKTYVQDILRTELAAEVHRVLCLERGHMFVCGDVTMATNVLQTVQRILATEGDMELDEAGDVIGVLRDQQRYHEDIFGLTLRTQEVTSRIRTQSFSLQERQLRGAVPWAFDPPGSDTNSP
RECORDED METRIC: IC50 (µM)
# number only, unit µM dropped from output

INPUT: Item N=C1CCCCN1 has what recorded IC50?
OUTPUT: 4.7

INPUT: Can you check N=C1CCCCCCCN1 next?
OUTPUT: 90

INPUT: Another molecule to check: NC1=NCCCCCC1
OUTPUT: 59
